# protocol_details: chemical genetic growth profiling, strain panel (AID 1159580);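 also: tested at 20 µM; growth read once vehicle control cultures reached saturation at 30 °C; 1 = growth at the plate median or of vehicle wells; lower values mean less growth of the strain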
# study_conditions: S. cerevisiae deletion strains, growth OD, locus YDR477W, strain SNF1, hits give low values
The whole screen tested about 5,500 compounds, of which about 2,000 (36%) were called active. Not shown: some 18% with an inconclusive outcome. The list shows a part of the results.
Reported normalized growth values are given for each entry in this list.
recorded_endpoint: normalized growth

molecule: O=C(NNc1cc(C(F)(F)F)cc(C(F)(F)F)c1)c1cnc2n(c1=O)CCS2
reported_value: 0.994
//
molecule: Clc1cccc(Cl)c1C1CC(c2ccccc2)=Nc2ccccc2S1 (stereo unspecified)
reported_value: 0.979
//
molecule: CC1(C)C=Cc2cc(/C(N)=N\OC(=O)Nc3cccc(C(F)(F)F)c3)ccc2O1
reported_value: 0.967
//
molecule: O=c1cc(CSc2ccc(Cl)cc2)c2ccc(O)cc2o1
reported_value: 0.674
//
molecule: N/C(=N/OC(=O)Nc1cccc(C(F)(F)F)c1)c1ccc(OC(F)(F)F)cc1
reported_value: 0.822
//
molecule: N#C/C(N=Cc1cc(Cl)cc(Cl)c1O)=C(\C#N)N=Cc1cc(Cl)cc(Cl)c1O
reported_value: 0.503
//
molecule: O=S(=O)(c1cc(Cl)ccc1Cl)N1CCc2ccccc2C1
reported_value: 1.02
//
molecule: O=C(Nc1ccc(SC(F)(F)F)cc1)Nc1ccc(Oc2cccc(C(F)(F)F)c2)nc1
reported_value: 0.982
//
molecule: COC(=O)/C=C1/OC(c2ccc(OC)cc2)=CC1=O
reported_value: 0.101
//
molecule: C/C(=N/NC(N)=S)c1csc(-c2ccccc2)n1
reported_value: 0.816
//
molecule: OC(COCc1ccccc1)Cn1c2ccccc2c2ccccc21 (stereo unspecified)
reported_value: 0.888
